System: Escherichia coli
Test: Inhibition of Escherichia coli chorismate mutase assessed as ratio of IC50 to chorismate Km
measurement-label: Ratio

A selection of reference data follows.
molecule="O=C(O)C1CC2(C(=O)O)C=CC(O)C(C2)N1 (stereo in doubt; 23)" observed_value=18
molecule="O=C(O)C1CC2(C(=O)O)C=CC3C(C2)N13 (stereo unspecified)" observed_value="> 20"
molecule="O=C1OC2CC3(C(=O)O)CC1NC(C3)C2O (stereo unspecified)" observed_value="> 50"

Fill in Ratio for each of the 3 molecules listed.
1. O=C(O)C1CC2(C(=O)O)C=CC(O)C(C2)O1 (stereo unspecified)
2. O=C(O)C1CC2(C(=O)O)C=CC(O)C(C2)N1 (stereo in doubt; 22)
3. O=C1OC2CC3(C(=O)O)CC1N1C(C3)C21 (stereo unspecified)

1: 0.007; 2: 1.2; 3: 42

---

I'd appreciate it if you could supply IC50 values for the items below.
Test: Inhibition of Escherichia coli chorismate mutase
Give bare numbers, in µM.

A selection of reference data follows.
molecule="O=C(O)C1CC2CC(C(=O)O)(C=CC2O)C1 (stereo in doubt; 16)" observed_value=430
molecule="O=C(O)C1CC2CC(C(=O)O)(C=CC2O)C1 (stereo in doubt; 17)" observed_value=500

Could you now look at the following molecule, please?
Quick check: IC50 of O=C(O)C12CC3CC(C(=O)O)(C1)C2CC3O (stereo not drawn) ? 500
